assay notes: Plasma protein binding, equilibrium dialysis, mouse plasma
Type: in vitro ADME
conditions: pH 7.4, equilibrium dialysis (RED) 4 hours at 37° C., read-out: Plasma protein binding, fu, Mouse
recorded metric: fraction unbound at 4 h, 10 μM

(Q) Would you kindly share the measured fraction unbound at 4 h, 10 μM for CC(c1noc(CCCN)n1)c1cccc2c(-c3ccc(CS(C)(=O)=O)c(F)c3)c(C(=O)O)[nH]c12 (stereo not shown) [IC-62] ?
(A) 0.005 to 0.05

(Q) Entry under review: C[C@H](OCc1ccc(CN)cc1)c1cccc2c(-c3ccc(CS(C)(=O)=O)c(Cl)c3)c(C(=O)O)[nH]c12 (single isomer, unassigned) [IC-87] . Reported fraction unbound at 4 h, 10 μM?
(A) 0.05 to 0.25

(Q) Given the molecule COc1cc(-c2c(C(=O)O)[nH]c3c([C@H](C)n4cc(CN5CC(N)C5)oc4=O)cccc23)ccn1 [IC-56] , what is its reported fraction unbound at 4 h, 10 μM?
(A) 0.005 to 0.05

(Q) Entry C[C@@H](c1cccc2c(-c3ccc(CS(C)(=O)=O)c(F)c3)c(C(=O)O)[nH]c12)n1cc(CCCN)oc1=O [IC-70] has what fraction unbound at 4 h, 10 μM?
(A) 0.005 to 0.05
